test: The drug is tested on Z-019 corresponding to rat gut metagenome with ENA study accession number: PRJEB37062 and ENA sample accession number: ERS12561818 for biotransformation under anaerobic condition. The drug concentrations were measured over 9 timepoints collected between 0 and 24 hours of incubation by liquid-chromatography-coupled mass spectrometry (LC–MS); conditions: 2 µM; note: call rule not given here
measured-property: Bacterial Biotransformation

Record excerpt, results attached:
{"molecule": "COc1cc2c(c(OC)c1OC)-c1ccc(OC)c(=O)cc1[C@@H](NC(C)=O)CC2", "Bacterial Biotransformation": "Compound NOT metabolized"}
{"molecule": "CN(C)C(=O)C(CCN1CCC(O)(c2ccc(Cl)cc2)CC1)(c1ccccc1)c1ccccc1 [LOPERAMIDE]", "Bacterial Biotransformation": "Compound NOT metabolized"}
{"molecule": "CC(C)c1c(C(=O)Nc2ccccc2)c(-c2ccccc2)c(-c2ccc(F)cc2)n1CC[C@@H](O)C[C@@H](O)CC(=O)O", "Bacterial Biotransformation": "Compound NOT metabolized"}
{"molecule": "CCN(CC)CCOCCOC(=O)C1(c2ccccc2)CCCC1.O=C(O)CC(O)(CC(=O)O)C(=O)O [CARBETAPENTANE CITRATE]", "Bacterial Biotransformation": "Compound NOT metabolized"}
{"molecule": "CN1CCN(C(=O)O[C@H]2c3nccnc3C(=O)N2c2ccc(Cl)cn2)CC1", "Bacterial Biotransformation": "Compound NOT metabolized"}

# input Could you share which Bacterial Biotransformation value was measured for CC(C)NCC(O)COc1ccc(COCCOC(C)C)cc1.CC(C)NCC(O)COc1ccc(COCCOC(C)C)cc1.O=C(O)/C=C/C(=O)O (configuration not stated) [BISOPROLOL FUMARATE] ?
# output Compound NOT metabolized

# input Could you share which Bacterial Biotransformation value was measured for CC(CN(C)C)CN1c2ccccc2CCc2ccccc21.O=C(O)/C=C\C(=O)O (configuration not stated) [TRIMIPRAMINE MALEATE] ?
# output Compound NOT metabolized

----------
experiment: The drug is tested on Z-011 corresponding to mouse gut metagenome with ENA study accession number: PRJEB37062 and ENA sample accession number: ERS12561811 for biotransformation under anaerobic condition. The drug concentrations were measured over 9 timepoints collected between 0 and 24 hours of incubation by liquid-chromatography-coupled mass spectrometry (LC–MS); conditions: 2 µM
measured-property: Bacterial Biotransformation

Record excerpt, results attached:
{"compound": "COc1ccc2c(c1OC)C(=O)O[C@@H]2[C@H]1c2c(cc3c(c2OC)OCO3)CCN1C [NOSCAPINE]", "Bacterial Biotransformation": "Compound metabolized"}
{"compound": "CC(CN1c2ccccc2Sc2ccccc21)N(C)C (stereo not drawn) [PROMETHAZINE]", "Bacterial Biotransformation": "Compound NOT metabolized"}
{"compound": "CO[C@]12C[C@@H](COC(=O)c3cncc(Br)c3)CN(C)[C@@H]1Cc1cn(C)c3cccc2c13 [NICERGOLINE]", "Bacterial Biotransformation": "Compound metabolized"}
{"compound": "CCCCCCOC(=O)/N=C(/N)c1ccc(NCc2nc3cc(C(=O)N(CCC(=O)OCC)c4ccccn4)ccc3n2C)cc1.CS(=O)(=O)O [DABIGATRAN ETEXILATE MESYLATE]", "Bacterial Biotransformation": "Compound NOT metabolized"}
{"compound": "CNCCC(Oc1ccc(C(F)(F)F)cc1)c1ccccc1 (stereo not drawn) [FLUOXETINE]", "Bacterial Biotransformation": "Compound NOT metabolized"}

# input Could you share which Bacterial Biotransformation value was measured for Nc1nc2ccc(OC(F)(F)F)cc2s1 [RILUZOLE] ?
# output Compound metabolized

# input Could you share which Bacterial Biotransformation value was measured for COc1ccc2[nH]c([S+]([O-])Cc3ncc(C)c(OC)c3C)nc2n1 (stereo not drawn) [TENATOPRAZOLE] ?
# output Compound metabolized

# input Could you share which Bacterial Biotransformation value was measured for CS(=O)(=O)O.OC(CCN1CCCCC1)(c1ccccc1)c1ccccc1 [PRIDINOL METHANESULFONATE] ?
# output Compound NOT metabolized

----------
test: The drug is tested on Z-018 corresponding to pig gut metagenome with ENA study accession number: PRJEB37062 and ENA sample accession number: ERS12561817 for biotransformation under anaerobic condition. The drug concentrations were measured over 9 timepoints collected between 0 and 24 hours of incubation by liquid-chromatography-coupled mass spectrometry (LC–MS); details: 2 µM
measured-property: Bacterial Biotransformation

Record excerpt, results attached:
{"compound": "CC(C)NCC(O)COc1ccc(COCCOC(C)C)cc1.CC(C)NCC(O)COc1ccc(COCCOC(C)C)cc1.O=C(O)/C=C/C(=O)O (configuration not stated) [BISOPROLOL FUMARATE]", "Bacterial Biotransformation": "Compound NOT metabolized"}
{"compound": "CCCc1nn(C)c2c(=O)[nH]c(-c3cc(S(=O)(=O)N4CCN(C)CC4)ccc3OCC)nc12.O=C(O)CC(O)(CC(=O)O)C(=O)O [SILDENAFIL CITRATE]", "Bacterial Biotransformation": "Compound NOT metabolized"}
{"compound": "O=P(O)(O)O.c1ccc(CN(CC2=NCCN2)c2ccccc2)cc1 [ANTAZOLINE PHOSPHATE]", "Bacterial Biotransformation": "Compound NOT metabolized"}
{"compound": "C=CCN1CC[C@]23c4c5ccc(O)c4O[C@H]2C(=O)CC[C@@]3(O)[C@H]1C5 [NALOXONE]", "Bacterial Biotransformation": "Compound NOT metabolized"}

# input Could you share which Bacterial Biotransformation value was measured for CC(O)(CS(=O)(=O)c1ccc(F)cc1)C(=O)Nc1ccc(C#N)c(C(F)(F)F)c1 (configuration not stated) [BICALUTAMIDE] ?
# output Compound NOT metabolized

# input Could you share which Bacterial Biotransformation value was measured for COC(=O)Nc1nc2ccc(C(=O)c3ccccc3)cc2[nH]1 [MEBENDAZOLE] ?
# output Compound metabolized

# input Could you share which Bacterial Biotransformation value was measured for COc1ccc2[nH]c([S+]([O-])Cc3ncc(C)c(OC)c3C)nc2n1 (configuration not stated) [TENATOPRAZOLE] ?
# output Compound metabolized

----------
assay: The drug is tested on WLS-039 corresponding to human gut metagenome with ENA study accession number: PRJEB37062 and ENA sample accession number: ERS12561746 for biotransformation under anaerobic condition. The drug concentrations were measured over 9 timepoints collected between 0 and 24 hours of incubation by liquid-chromatography-coupled mass spectrometry (LC–MS); conditions: 2 µM
measured-property: Bacterial Biotransformation

{"compound": "COc1c2occc2cc2ccc(=O)oc12", "result": "Compound metabolized"}
{"compound": "Clc1ccc(Cn2c(CN3CCCC3)nc3ccccc32)cc1", "result": "Compound metabolized"}
{"compound": "O=C(O)COCCN1CCN(C(c2ccccc2)c2ccc(Cl)cc2)CC1 (stereo not given)", "result": "Compound metabolized"}
{"compound": "CC[C@@H](CO)NC(=O)[C@@H]1C=C2c3cccc4c3c(cn4C)C[C@H]2N(C)C1.O=C(O)/C=C\\C(=O)O [METHYSERGIDE MALEATE]", "result": "Compound NOT metabolized"}

As a next step, examine the compound that follows.
# input Could you share which Bacterial Biotransformation value was measured for COc1ccccc1OCC(O)COC(N)=O (stereo not given) ?
# output Compound NOT metabolized

----------
details: human gut metagenome, 24 h, 2 µM
measured-property: Bacterial Biotransformation

Record excerpt, results attached:
{"molecule": "Cc1ccnc2c1NC(=O)c1cccnc1N2C1CC1", "Bacterial Biotransformation": "Compound NOT metabolized"}
{"molecule": "OC(CCN1CCCCC1)(c1ccccc1)C1CCCCC1 (stereo not drawn)", "Bacterial Biotransformation": "Compound NOT metabolized"}
{"molecule": "CCc1nn(CCCN2CCN(c3cccc(Cl)c3)CC2)c(=O)n1CCOc1ccccc1", "Bacterial Biotransformation": "Compound NOT metabolized"}
{"molecule": "CCN(CC)CCOC(=O)C(Cc1cccc2ccccc12)CC1CCCO1.O=C(O)C(=O)O (stereo not drawn) [NAFRONYL OXALATE]", "Bacterial Biotransformation": "Compound metabolized"}
{"molecule": "C#C[C@]1(O)CC[C@H]2[C@@H]3CCC4=CC(=O)CC[C@@H]4[C@H]3CC[C@@]21CC", "Bacterial Biotransformation": "Compound metabolized"}
{"molecule": "COc1cc2nc(N3CCN(C(=O)c4ccco4)CC3)nc(N)c2cc1OC", "Bacterial Biotransformation": "Compound NOT metabolized"}

# input Could you share which Bacterial Biotransformation value was measured for COC1=CC(=O)C[C@@H](C)[C@]12Oc1c(Cl)c(OC)cc(OC)c1C2=O ?
# output Compound metabolized

# input Could you share which Bacterial Biotransformation value was measured for CC(CN(C)C)CN1c2ccccc2CCc2ccccc21.O=C(O)/C=C\C(=O)O (stereo not drawn) [TRIMIPRAMINE MALEATE] ?
# output Compound metabolized

----------
conditions: human gut metagenome, 24 h, 2 µM
measured-property: Bacterial Biotransformation

Record excerpt, results attached:
{"compound": "CCCc1nn(C)c2c(=O)[nH]c(-c3cc(S(=O)(=O)N4CCN(C)CC4)ccc3OCC)nc12.O=C(O)CC(O)(CC(=O)O)C(=O)O [SILDENAFIL CITRATE]", "Bacterial Biotransformation": "Compound NOT metabolized"}
{"compound": "CCCCC(=O)N(Cc1ccc(-c2ccccc2-c2nnn[nH]2)cc1)[C@H](C(=O)O)C(C)C", "Bacterial Biotransformation": "Compound metabolized"}
{"compound": "O=C1[C@H](CC[C@H](O)c2ccc(F)cc2)[C@@H](c2ccc(O)cc2)N1c1ccc(F)cc1", "Bacterial Biotransformation": "Compound NOT metabolized"}
{"compound": "CC[C@H](C)C(=O)O[C@H]1C[C@@H](C)C=C2C=C[C@H](C)[C@H](CC[C@@H]3C[C@@H](O)CC(=O)O3)[C@H]21", "Bacterial Biotransformation": "Compound NOT metabolized"}
{"compound": "C=CCc1ccccc1OCC(O)CNC(C)C (stereo not drawn)", "Bacterial Biotransformation": "Compound NOT metabolized"}

# input Could you share which Bacterial Biotransformation value was measured for Cc1ccccc1N1C(=O)c2cc(S(N)(=O)=O)c(Cl)cc2NC1C (stereo not drawn) ?
# output Compound NOT metabolized

# input Could you share which Bacterial Biotransformation value was measured for CCOC(=O)[C@H](CCc1ccccc1)N[C@H]1CCc2ccccc2N(CC(=O)O)C1=O ?
# output Compound NOT metabolized

# input Could you share which Bacterial Biotransformation value was measured for CC(C)NCC(O)COc1ccc(COCCOC(C)C)cc1.CC(C)NCC(O)COc1ccc(COCCOC(C)C)cc1.O=C(O)/C=C/C(=O)O (stereo not drawn) [BISOPROLOL FUMARATE] ?
# output Compound NOT metabolized

# input Could you share which Bacterial Biotransformation value was measured for CC(Oc1c(Cl)cccc1Cl)C1=NCCN1 (stereo not drawn) ?
# output Compound NOT metabolized

# input Could you share which Bacterial Biotransformation value was measured for CC(C)c1c(C(=O)Nc2ccccc2)c(-c2ccccc2)c(-c2ccc(F)cc2)n1CC[C@@H](O)C[C@@H](O)CC(=O)O ?
# output Compound metabolized

# input Could you share which Bacterial Biotransformation value was measured for CC(C)N(CCC(C(N)=O)(c1ccccc1)c1ccccn1)C(C)C.O=P(O)(O)O (stereo not drawn) [DISOPYRAMIDE PHOSPHATE] ?
# output Compound NOT metabolized
